# EXPERIMENTAL_TARGET: AAK1 (Homo sapiens)
# Sequence (Q2M2I8 whole entry): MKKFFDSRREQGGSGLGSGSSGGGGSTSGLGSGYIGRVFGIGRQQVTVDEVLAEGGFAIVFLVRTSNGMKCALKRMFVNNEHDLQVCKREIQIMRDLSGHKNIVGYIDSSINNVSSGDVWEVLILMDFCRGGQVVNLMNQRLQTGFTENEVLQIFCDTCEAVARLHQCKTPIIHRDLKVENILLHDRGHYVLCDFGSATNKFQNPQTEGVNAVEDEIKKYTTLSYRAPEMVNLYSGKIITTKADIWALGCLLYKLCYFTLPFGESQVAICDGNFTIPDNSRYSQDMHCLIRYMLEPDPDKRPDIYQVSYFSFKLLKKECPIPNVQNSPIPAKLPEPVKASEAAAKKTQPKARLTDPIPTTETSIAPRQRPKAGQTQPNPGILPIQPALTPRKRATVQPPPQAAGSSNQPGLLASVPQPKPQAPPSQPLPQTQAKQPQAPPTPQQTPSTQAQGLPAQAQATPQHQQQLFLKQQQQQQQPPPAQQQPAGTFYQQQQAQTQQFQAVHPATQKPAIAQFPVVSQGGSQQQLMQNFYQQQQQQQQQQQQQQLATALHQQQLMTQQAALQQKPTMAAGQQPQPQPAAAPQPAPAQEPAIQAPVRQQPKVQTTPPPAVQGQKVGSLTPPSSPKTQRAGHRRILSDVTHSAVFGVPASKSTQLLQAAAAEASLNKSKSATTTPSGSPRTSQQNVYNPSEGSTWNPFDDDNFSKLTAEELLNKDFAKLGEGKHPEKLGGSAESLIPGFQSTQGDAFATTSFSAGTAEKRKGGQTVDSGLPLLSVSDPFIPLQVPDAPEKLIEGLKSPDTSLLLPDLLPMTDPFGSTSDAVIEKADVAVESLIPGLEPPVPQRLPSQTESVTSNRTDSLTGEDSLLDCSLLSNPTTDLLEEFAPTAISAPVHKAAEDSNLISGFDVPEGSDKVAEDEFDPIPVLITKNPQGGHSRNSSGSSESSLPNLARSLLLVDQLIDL
Mark true (1) for Ki under 3 µM, false (0) if at or over.

Below, 2 compounds whose answers are already recorded.
- COMPOUND_SMILES: "COc1cccc(Nc2ccnc3ccc(Br)cc23)c1OC"
  LABEL_VALUE: "false (0)"
- COMPOUND_SMILES: "O=c1[nH]c2cc(Nc3ccnc4ccc(Br)cc34)ccc2o1"
  LABEL_VALUE: "false (0)"

Hi there! Is Ki for `Brc1ccc2nccc(Nc3cccc4ncoc34)c2c1` below 3 µM, do you know?
false (0)

Hi there! Is Ki for `Brc1ccc2nccc(Nc3ccc4cn[nH]c4c3)c2c1` below 3 µM, do you know?
true (1)

Hi there! Is Ki for `Brc1ccc2nccc(Nc3cccc4nsnc34)c2c1` below 3 µM, do you know?
true (1)

Hi there! Is Ki for `Brc1ccc2nccc(Nc3cccc4oncc34)c2c1` below 3 µM, do you know?
false (0)

Hi there! Is Ki for `Brc1ccc2nccc(Nc3cccc4sccc34)c2c1` below 3 µM, do you know?
false (0)

###

# PROTOCOL_SUMMARY: mouse liver microsome metabolic stability
# CONDITION_DETAILS: mouse, mouse liver microsomes, T1/2 (min), mouse liver microsomes with NADPH; mean average, n = 2
The entries below come with measured log10(half-life) values attached.
Scale type: logarithmic (base 10). Underlying half-life unit: min.

- COMPOUND: "Brc1ccc2nccc(Nc3cccc4c3OCC4)c2c1 [Compound 18]"
  log10(half-life): -0.09
- COMPOUND: "Fc1ccc(F)c(Nc2ccnc3ccc(Br)cc23)c1 [Compound 10]"
  log10(half-life): 0.23
- COMPOUND: "O=C1NCc2ccc(Nc3ccnc4ccc(Br)cc34)cc21 [Compound 38]"
  log10(half-life): 0.91
- COMPOUND: "Brc1ccc2nccc(Nc3ccc4cn[nH]c4c3)c2c1 [Compound 35]"
  log10(half-life): 1.66

Moving on to the next compound.
Given the entry Brc1ccc2nccc(Nc3ccc4[nH]ncc4c3)c2c1 [Compound 37] , report its measured log10(half-life).
0.88

###

# PROTOCOL_SUMMARY: pharmacokinetic profiling in mice, oral dosing
# Type: in vivo
# CONDITION_DETAILS: male, C57BL/6, mouse, plasma, po, 10 mg/kg, C57BL/6 mice, 10 mg/kg po, without ABT; read-out: Cmax
MEASURED_PARAMETER: Cmax

Given the entry `COc1cc(Nc2ccnc3ccc(Br)cc23)cc(OC)c1OC` , report its measured Cmax.
< 100 ng/mL

###

# EXPERIMENTAL_TARGET: BMP2K (Homo sapiens)
# PROTOCOL_SUMMARY: NAK family TR-FRET binding displacement assay
# CONDITION_DETAILS: NAK family FRET screening; read-out: Binding displacement assay BMP2K Ki
MEASURED_PARAMETER: Ki

Given the entry COc1cc(Nc2ccnc3ccc(C(F)(F)F)cc23)cc(OC)c1OC [Compound 13] , report its measured Ki.
> 100 µM

###

The entries below come with measured log10 CLint scaled values attached.
# PROTOCOL_SUMMARY: mouse liver microsome metabolic stability
# CONDITION_DETAILS: mouse, mouse liver microsomes, Clint (mL/min/kg) (−) ABT, (−) ABT
Scale type: logarithmic (base 10). Underlying CLint scaled unit: mL/min/kg.

Given the entry Fc1ccc2c(c1Nc1ccnc3ccc(Br)cc13)OCO2 [Compound 14] , report its measured log10 CLint scaled.
3.88

Given the entry COc1cc2nccc(Nc3cc(OC)c(OC)c(OC)c3)c2cc1OC [Compound 8] , report its measured log10 CLint scaled.
2.51

Given the entry Brc1ccc2nccc(Nc3cccc4c3OCO4)c2c1 [Compound 9] , report its measured log10 CLint scaled.
3.88

Given the entry Brc1ccc2nccc(Nc3ccc4cn[nH]c4c3)c2c1 [Compound 35] , report its measured log10 CLint scaled.
2.08

Given the entry COc1cc(Nc2ccnc3ccc(Br)cc23)cc(OC)c1OC [Compound 1] , report its measured log10 CLint scaled.
3.00

###

# PROTOCOL_SUMMARY: mouse liver microsome metabolic stability
# CONDITION_DETAILS: mouse, mouse liver microsomes, T1/2 (min) (+) ABT, mouse liver microsomes, (+) ABT; mean average, n = 2
MEASURED_PARAMETER: half-life (h)
Please give a number only; it is taken to be in h.

- COMPOUND_SMILES: "Brc1ccc2nccc(Nc3cccc4c3OCO4)c2c1"
  OUTPUT_UNIT: "h"
  half-life: 0.03

Given the entry `Fc1ccc2c(c1Nc1ccnc3ccc(Br)cc13)OCO2` , report its measured half-life.
0.0417

Given the entry `COc1cc(Nc2ccnc3ccc(Br)cc23)cc(OC)c1OC` , report its measured half-life.
2.17

Given the entry `Brc1ccc2nccc(Nc3ccc4cn[nH]c4c3)c2c1` , report its measured half-life.
2.83

###

# PROTOCOL_SUMMARY: mouse liver microsome metabolic stability
# CONDITION_DETAILS: mouse, mouse liver microsomes, T1/2 (min), mouse liver microsomes with NADPH; mean average, n = 2
MEASURED_PARAMETER: half-life (min)
Please give a number only; it is taken to be in min.

Some molecules with known half-life results, for comparison:
- COMPOUND_SMILES: "Brc1ccc2nccc(Nc3cccc4nsnc34)c2c1"
  OUTPUT_UNIT: "min"
  REPORTED: 1.6
- COMPOUND_SMILES: "FC1(F)Oc2cccc(Nc3ccnc4ccc(Br)cc34)c2O1"
  OUTPUT_UNIT: "min"
  REPORTED: 2
- COMPOUND_SMILES: "Cn1c(=O)[nH]c2cc(Nc3ccnc4ccc(Br)cc34)ccc21"
  OUTPUT_UNIT: "min"
  REPORTED: 33.6
- COMPOUND_SMILES: "COc1cc2nccc(Nc3cc(OC)c(OC)c(OC)c3)c2cc1OC"
  OUTPUT_UNIT: "min"
  REPORTED: 12.2

Given the entry `O=S1(=O)Cc2ccc(Nc3ccnc4ccc(Br)cc34)cc2C1` , report its measured half-life.
15.6

Given the entry `Brc1ccc2nccc(Nc3cccc4ncoc34)c2c1` , report its measured half-life.
1.7

Given the entry `Brc1ccc2nccc(Nc3cccc4oncc34)c2c1` , report its measured half-life.
1.4

Given the entry `Brc1ccc2nccc(Nc3cccc4[nH]ncc34)c2c1` , report its measured half-life.
2.5

###

# PROTOCOL_SUMMARY: pharmacokinetic profiling in mice, oral dosing
# Format: in vivo
# CONDITION_DETAILS: male, mouse, plasma; C57BL/6 mice, 10 mg/kg po, without ABT; read-out: T1/2 in mice
The entries below come with measured half-life values attached.

- COMPOUND: "COc1cc2nccc(Nc3cc(OC)c(OC)c(OC)c3)c2cc1OC [Compound 8]"
  MEASURED_PARAMETER: "half-life"
  REPORTED: "< 1 h"

Given the entry COc1cc(Nc2ccnc3ccc(Br)cc23)cc(OC)c1OC [Compound 1] , report its measured half-life.
< 1 h

###

# EXPERIMENTAL_TARGET: BMP2K (Homo sapiens, UniProt Q9NSY1)
# Sequence (Q9NSY1 whole entry): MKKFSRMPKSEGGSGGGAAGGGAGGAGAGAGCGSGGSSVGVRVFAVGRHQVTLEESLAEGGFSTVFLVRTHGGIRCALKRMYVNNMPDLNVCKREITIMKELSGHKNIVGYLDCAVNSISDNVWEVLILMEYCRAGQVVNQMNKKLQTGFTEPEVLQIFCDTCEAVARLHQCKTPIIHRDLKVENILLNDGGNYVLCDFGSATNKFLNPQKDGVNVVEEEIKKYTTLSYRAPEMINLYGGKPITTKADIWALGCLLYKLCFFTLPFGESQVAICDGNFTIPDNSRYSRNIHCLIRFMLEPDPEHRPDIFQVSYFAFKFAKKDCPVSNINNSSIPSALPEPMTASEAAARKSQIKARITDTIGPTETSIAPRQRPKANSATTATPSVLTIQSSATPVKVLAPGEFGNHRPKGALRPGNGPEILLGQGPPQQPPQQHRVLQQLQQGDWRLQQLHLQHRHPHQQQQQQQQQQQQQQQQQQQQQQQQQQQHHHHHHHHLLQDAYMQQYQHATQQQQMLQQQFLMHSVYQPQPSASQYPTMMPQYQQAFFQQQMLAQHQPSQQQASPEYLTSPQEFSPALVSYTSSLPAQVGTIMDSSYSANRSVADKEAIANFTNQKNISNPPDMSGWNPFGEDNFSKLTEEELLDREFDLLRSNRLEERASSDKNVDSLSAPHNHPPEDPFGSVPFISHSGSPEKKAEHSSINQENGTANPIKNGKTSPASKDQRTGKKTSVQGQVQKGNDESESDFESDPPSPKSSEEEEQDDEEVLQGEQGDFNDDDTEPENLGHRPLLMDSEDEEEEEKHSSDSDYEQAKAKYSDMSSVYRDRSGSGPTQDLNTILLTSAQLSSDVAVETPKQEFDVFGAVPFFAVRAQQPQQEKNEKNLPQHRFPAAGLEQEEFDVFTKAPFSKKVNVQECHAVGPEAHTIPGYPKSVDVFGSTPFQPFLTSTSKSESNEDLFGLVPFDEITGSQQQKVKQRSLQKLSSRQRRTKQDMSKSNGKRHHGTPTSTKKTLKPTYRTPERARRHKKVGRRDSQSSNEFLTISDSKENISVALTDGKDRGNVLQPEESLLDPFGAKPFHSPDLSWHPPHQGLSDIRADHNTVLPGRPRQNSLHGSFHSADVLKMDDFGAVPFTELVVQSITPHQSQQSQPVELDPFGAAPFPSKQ
# PROTOCOL_SUMMARY: NAK family TR-FRET binding displacement assay
The entries below come with measured Ki values attached.
Please give a number only; it is taken to be in µM.

Some molecules with known Ki results, for comparison:
- COMPOUND_SMILES: "Brc1ccc2nccc(Nc3cccc4c3OCC4)c2c1"
  EXPERIMENTAL_TARGET: "BMP2K (Homo sapiens, UniProt Q9NSY1)"
  Ki [µM]: 11
- COMPOUND_SMILES: "COc1cc2nccc(Nc3cc(OC)c(OC)c(OC)c3)c2cc1OC"
  EXPERIMENTAL_TARGET: "BMP2K (Homo sapiens, UniProt Q9NSY1)"
  Ki [µM]: 63
- COMPOUND_SMILES: "Brc1ccc2nccc(Nc3cccc4nsnc34)c2c1"
  EXPERIMENTAL_TARGET: "BMP2K (Homo sapiens, UniProt Q9NSY1)"
  Ki [µM]: 4.3

Given the entry `Fc1ccc(Nc2ccnc3ccc(Br)cc23)c(F)c1` , report its measured Ki.
18

###

# EXPERIMENTAL_TARGET: GAK (Homo sapiens, UniProt O14976)
# Sequence (O14976 whole entry): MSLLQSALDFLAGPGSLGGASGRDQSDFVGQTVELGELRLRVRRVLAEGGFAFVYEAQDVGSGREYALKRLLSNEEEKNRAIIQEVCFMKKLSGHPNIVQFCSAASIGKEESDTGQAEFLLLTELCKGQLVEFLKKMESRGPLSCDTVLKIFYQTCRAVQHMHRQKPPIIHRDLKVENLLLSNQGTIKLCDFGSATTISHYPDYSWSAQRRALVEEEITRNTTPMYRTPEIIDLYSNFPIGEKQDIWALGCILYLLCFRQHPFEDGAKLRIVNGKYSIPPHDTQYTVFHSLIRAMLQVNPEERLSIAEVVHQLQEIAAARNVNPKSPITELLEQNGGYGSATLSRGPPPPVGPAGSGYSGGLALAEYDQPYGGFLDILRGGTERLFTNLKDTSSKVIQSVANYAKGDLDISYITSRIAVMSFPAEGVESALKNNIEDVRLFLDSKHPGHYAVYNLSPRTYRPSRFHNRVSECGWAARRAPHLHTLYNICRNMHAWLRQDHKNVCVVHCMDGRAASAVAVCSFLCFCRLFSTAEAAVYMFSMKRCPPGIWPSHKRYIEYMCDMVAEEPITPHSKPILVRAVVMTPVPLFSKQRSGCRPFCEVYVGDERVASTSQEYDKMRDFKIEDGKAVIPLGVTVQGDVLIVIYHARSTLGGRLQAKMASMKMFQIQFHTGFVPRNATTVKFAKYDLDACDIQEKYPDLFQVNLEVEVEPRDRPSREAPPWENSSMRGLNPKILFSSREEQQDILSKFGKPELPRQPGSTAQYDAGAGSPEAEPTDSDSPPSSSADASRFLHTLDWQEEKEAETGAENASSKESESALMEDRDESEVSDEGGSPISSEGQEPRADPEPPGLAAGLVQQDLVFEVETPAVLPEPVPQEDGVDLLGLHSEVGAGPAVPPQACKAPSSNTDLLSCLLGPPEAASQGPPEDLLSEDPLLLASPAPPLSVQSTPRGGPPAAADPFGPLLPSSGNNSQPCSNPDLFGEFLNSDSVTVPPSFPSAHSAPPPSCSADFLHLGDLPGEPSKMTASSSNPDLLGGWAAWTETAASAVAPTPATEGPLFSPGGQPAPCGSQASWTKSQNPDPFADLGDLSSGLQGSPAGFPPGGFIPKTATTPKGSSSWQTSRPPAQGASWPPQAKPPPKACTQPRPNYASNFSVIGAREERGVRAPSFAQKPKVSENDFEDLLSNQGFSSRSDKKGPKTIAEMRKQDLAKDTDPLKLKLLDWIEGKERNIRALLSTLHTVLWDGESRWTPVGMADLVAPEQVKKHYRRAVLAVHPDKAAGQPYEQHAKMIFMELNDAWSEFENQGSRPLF
# PROTOCOL_SUMMARY: live cell NanoBRET target engagement assay
# Format: cell-based
# CONDITION_DETAILS: nanoBRET; mean average, n = 2
Mark Fulfilled for IC50 under 1000 nM, Not fulfilled if at or over.

- COMPOUND_SMILES: "Brc1ccc2nccc(Nc3cccc4sccc34)c2c1"
  LABEL_VALUE: "Not fulfilled"
- COMPOUND_SMILES: "Brc1ccc2nccc(Nc3cccc4ccoc34)c2c1"
  LABEL_VALUE: "Fulfilled"
- COMPOUND_SMILES: "Brc1ccc2nccc(Nc3cccc4oncc34)c2c1"
  LABEL_VALUE: "Not fulfilled"
- COMPOUND_SMILES: "Cn1nnc2c(Nc3ccnc4ccc(Br)cc34)cccc21"
  LABEL_VALUE: "Not fulfilled"
- COMPOUND_SMILES: "Brc1ccc2nccc(Nc3cccc4nsnc34)c2c1"
  LABEL_VALUE: "Fulfilled"
- COMPOUND_SMILES: "O=c1[nH]c2ccc(Nc3ccnc4ccc(Br)cc34)cc2[nH]1"
  LABEL_VALUE: "Not fulfilled"

Kindly review the next compound as well.
Hi there! Is IC50 for `COc1cccc(Nc2ccnc3ccc(Br)cc23)c1OC` below 1000 nM, do you know?
Not fulfilled
